- study_system: Ba/F3-EGFR-D770_N771insSVD cells (Homo sapiens, UniProt P00533, DUP768-770, cells depend on it)
- Sequence (P00533 with tags, fused parts or gaps DUP768-770): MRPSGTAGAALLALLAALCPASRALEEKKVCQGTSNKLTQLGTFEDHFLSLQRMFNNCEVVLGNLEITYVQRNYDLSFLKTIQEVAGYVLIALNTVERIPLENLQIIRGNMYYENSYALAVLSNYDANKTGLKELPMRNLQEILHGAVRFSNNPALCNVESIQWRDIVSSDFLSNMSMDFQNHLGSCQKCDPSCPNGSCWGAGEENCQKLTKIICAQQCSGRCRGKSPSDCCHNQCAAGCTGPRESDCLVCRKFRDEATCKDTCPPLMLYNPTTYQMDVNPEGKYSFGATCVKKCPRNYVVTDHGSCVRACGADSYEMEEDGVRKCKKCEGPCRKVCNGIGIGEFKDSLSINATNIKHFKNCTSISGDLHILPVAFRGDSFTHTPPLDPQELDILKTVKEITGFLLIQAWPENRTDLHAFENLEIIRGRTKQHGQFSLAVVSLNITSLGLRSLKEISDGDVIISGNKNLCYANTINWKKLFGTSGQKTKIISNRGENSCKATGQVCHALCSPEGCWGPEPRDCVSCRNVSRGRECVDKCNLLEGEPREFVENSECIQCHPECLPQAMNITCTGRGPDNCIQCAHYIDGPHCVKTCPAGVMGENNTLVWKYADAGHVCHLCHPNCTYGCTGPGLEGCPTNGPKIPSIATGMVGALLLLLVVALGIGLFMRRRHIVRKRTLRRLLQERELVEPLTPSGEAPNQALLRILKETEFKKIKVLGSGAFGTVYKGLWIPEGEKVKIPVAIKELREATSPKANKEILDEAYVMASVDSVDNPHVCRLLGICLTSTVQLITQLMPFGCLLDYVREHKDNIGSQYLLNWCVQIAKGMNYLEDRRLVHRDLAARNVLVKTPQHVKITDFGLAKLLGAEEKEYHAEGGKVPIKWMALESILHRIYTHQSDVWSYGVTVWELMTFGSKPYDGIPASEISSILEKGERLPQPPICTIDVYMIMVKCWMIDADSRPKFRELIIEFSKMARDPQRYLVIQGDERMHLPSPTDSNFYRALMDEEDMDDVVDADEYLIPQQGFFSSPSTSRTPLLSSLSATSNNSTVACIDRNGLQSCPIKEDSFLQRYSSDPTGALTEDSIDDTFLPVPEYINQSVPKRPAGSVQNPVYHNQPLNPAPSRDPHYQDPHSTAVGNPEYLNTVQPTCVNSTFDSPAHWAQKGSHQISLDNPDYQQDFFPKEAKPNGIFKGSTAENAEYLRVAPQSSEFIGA
- assay_explanation: Ba/F3 cell survival assay, EGFR D770_N771insSVD
- Format: cell-based
- condition_description: Cell Titer-Glo, 48 h, without IL-3; Table 4; read-out: BA/F3 (insSVD) IC50
readout_label: log10 GI50 (log10 of the value in nM)
Recall that a logarithmic scale is used here: each number is log10 of GI50 in nM.

| compound | assay_value |
| --- | --- |
| COc1c(Cl)cccc1Nc1c(-c2ccncc2OCC2COCCO2)[nH]c2c1C(=O)NC1(CCC1)C2 (stereo not shown) [Example 123] | 1.53 |
| Cc1c(Cl)cccc1Nc1c(-c2ccncc2OCC2COCCO2)[nH]c2c1C(=O)NCC2C (single isomer, unassigned) [Example 69] | 1.86 |
| Cc1c(Cl)cccc1Nc1c(-c2ccncc2OC[C@H]2CN(C)CCO2)[nH]c2c1C(=O)N[C@H](C)C2 | 2.50 |

Query :: Please report log10 GI50 for the following compound: COc1c(Cl)cccc1Nc1c(-c2ccncc2OCC2CCCCO2)[nH]c2c1C(=O)NCC2C (single isomer, unassigned) [Example 45]
Result :: 1.67

Query :: Please report log10 GI50 for the following compound: COc1c(Cl)cccc1Nc1c(-c2ccncc2OCC2COCCO2)[nH]c2c1C(=O)NCC2C (single isomer, unassigned) [Example 34]
Result :: 1.31

Query :: Please report log10 GI50 for the following compound: COc1c(Cl)cccc1Nc1c(-c2ccncc2OCC2COC(C)(C)CO2)[nH]c2c1C(=O)NC1(CC1)C2 (single isomer, unassigned) [Example 134]
Result :: 1.97

Query :: Please report log10 GI50 for the following compound: COc1c(Cl)cccc1Nc1c(-c2ccncc2OC[C@@H]2CCCCO2)[nH]c2c1C(=O)NC1(CCC1)C2
Result :: 1.08
